Target: cynomolgus PSMA, full-length, expressed on CHO cells (cynomolgus, UniProt A0A2K5VNZ0 1-750)
Assay: cell-based or functional assay
Hi there, I'd appreciate the recorded His-ZAP cell killing, cyno PSMA Average EC50 for every entry that follows.
Please reply with the bare figure in pM and do not write the unit itself.

Inquiry: Output His-ZAP cell killing, cyno PSMA Average EC50 of 1.1-6GS-2.17 (bispecific antibody, not shown: small tags and cut ends) EVQLLESGGGLVQPGGSLRLSCAASGFSFSSYAMSWVRQAPGKGLEWVSSIGENDGTTDYADSVKGRFTISRDNSKSMLYLQMNSLRVEDTAVYYCVKDGVHWGQGTLVTVSSGGGGSGGGGSGGGGSGGGGSGGGGSGGGGSEVQLVESGGGVVQPGRSLRLSCAASGFSFSGYGMHWVRQAPGKGLEWVAYISYDASNKYYADNVKGRFTISRDNSKNTLYLQMNSLRAEDTAVYYCAKDPAWGLRLGESSSYDFDIWGQGTMVTVSS
Reply text: 11

Inquiry: Output His-ZAP cell killing, cyno PSMA Average EC50 of 1.11-6GS-2.17 (bispecific antibody, not shown: small tags and cut ends) EVQLLESGGGLVQPGGSLRLSCAASGFSFSSYALSWVRQAPGKGLEWVSSIGENNDTTDYADNVKGRFTISRDNSKNTLYLQMNSLRVEDTAVYYCVKDGVHWGQGTLVTVSSGGGGSGGGGSGGGGSGGGGSGGGGSGGGGSEVQLVESGGGVVQPGRSLRLSCAASGFSFSGYGMHWVRQAPGKGLEWVAYISYDASNKYYADNVKGRFTISRDNSKNTLYLQMNSLRAEDTAVYYCAKDPAWGLRLGESSSYDFDIWGQGTMVTVSS
Reply text: 8.1
